- test_target: MMP-2 (Homo sapiens)
- Sequence (P08253 110-660): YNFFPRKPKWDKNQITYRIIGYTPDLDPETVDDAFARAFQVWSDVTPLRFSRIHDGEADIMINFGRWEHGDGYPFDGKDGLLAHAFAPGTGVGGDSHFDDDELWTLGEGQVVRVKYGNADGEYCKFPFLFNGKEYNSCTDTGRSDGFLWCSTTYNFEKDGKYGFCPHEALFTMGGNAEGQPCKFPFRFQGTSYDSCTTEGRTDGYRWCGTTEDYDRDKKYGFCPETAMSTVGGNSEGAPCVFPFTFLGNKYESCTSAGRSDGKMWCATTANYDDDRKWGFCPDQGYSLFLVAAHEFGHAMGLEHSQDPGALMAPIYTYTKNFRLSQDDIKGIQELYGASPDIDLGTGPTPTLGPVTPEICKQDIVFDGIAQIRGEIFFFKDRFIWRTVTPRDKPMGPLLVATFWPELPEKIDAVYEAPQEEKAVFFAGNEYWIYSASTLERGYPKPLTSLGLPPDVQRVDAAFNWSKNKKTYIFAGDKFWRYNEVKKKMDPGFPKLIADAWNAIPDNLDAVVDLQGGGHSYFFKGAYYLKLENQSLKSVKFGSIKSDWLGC
- measurement_protocol: Cleavage by recombinant protease MMP-2
- Assay type: biochemical
- measurement_parameters: initial rate, recombinant MMP-2
readout: Rates of cleavage by recombinant proteases, MMP-2 (µM/h)

sequence_entry	measured_number
PANLVAPDP [proteolytically cleavable peptide (CP), protease substrate]	31.2
RPLALWRS [proteolytically cleavable peptide (CP), protease substrate]	1.1
RSKYLATA [proteolytically cleavable peptide (CP), protease substrate]	0.0
PVSLRSGS [proteolytically cleavable peptide (CP), protease substrate]	1.9
APAGLIVPYN [proteolytically cleavable peptide (CP), protease substrate]	29.6
IVGRPRHQGV [proteolytically cleavable peptide (CP), protease substrate]	0.0
TQKPLGLS [proteolytically cleavable peptide (CP), protease substrate]	11.8
